molecular target: human melanocortin receptor-4 (human, UniProt P32245 1-332); experiment: cell-based or functional assay
Sequence (P32245 whole entry): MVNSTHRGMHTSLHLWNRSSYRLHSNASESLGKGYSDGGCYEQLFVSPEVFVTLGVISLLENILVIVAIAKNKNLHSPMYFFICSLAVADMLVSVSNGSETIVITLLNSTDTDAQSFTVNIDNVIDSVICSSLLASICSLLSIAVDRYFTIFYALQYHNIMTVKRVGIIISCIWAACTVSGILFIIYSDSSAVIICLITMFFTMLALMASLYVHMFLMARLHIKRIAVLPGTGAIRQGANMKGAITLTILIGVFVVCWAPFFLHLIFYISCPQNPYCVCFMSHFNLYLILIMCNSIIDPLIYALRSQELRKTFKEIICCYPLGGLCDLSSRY
Positions of bridges follow the written chain, without caps; N, C: chain ends. Non-standard residues stand in square brackets, D forms with d. Aad = N[C@@H](CCCC(=O)O)C(=O)O; Orn = NCCC[C@H](N)C(=O)O; Dab = NCC[C@H](N)C(=O)O
quantity_kind: hMC4r Emax (%)
Answers are plain numbers, in %.

Example binders with recorded hMC4r Emax:
Ac-REN[dF]RW[Orn]-NH2 (lactam 2-7, also called Ac-Arg-cyclo(Glu-Asn-D-Phe-Arg-Trp-Orn)-NH2) [Peptide No. 161] : 91
Ac-R[Aad]N[dF]RW[Dab]-NH2 (lactam 2-7, also called Ac-Arg-cyclo(hGlu-Asn-D-Phe-Arg-Trp-Dab)-NH2) [Peptide No. 160] : 98
RXQFRWX (N-terminal Ac; Dab 2 (X); D-Phe 4; hGlu 7 (X); cyclo(Dab 2-hGlu 7); C-terminal NH2, also called Ac-Arg-cyclo(Dab-Gln-D-Phe-Arg-Trp-hGlu)-NH2) [Peptide No. 159] : 99

Lab note: Ac-[dR]DQ[dF]RWK-NH2 (lactam 2-7) [Peptide No. 71] gave hMC4r Emax of 89
